half-life at 1 μM reference
Test: Plasma stability assay, human plasma
Assay type: in vitro ADME
PARAMETER: half-life at 1 μM

1. O=c1c(O)c(-c2ccc(OCc3ccncc3)cc2)oc2ccccc12 [Compound F-4N] : > 120 min
2. O=c1c(O)c(-c2ccc(O)c(O)c2)oc2cc(O)cc(O)c12 [quercetin, reference compound] : ~30 min

----------
Test system: proliferating lung fibroblasts
Experiment: Cleaved caspase-3 (CCasp3) immunocytochemistry in proliferating lung fibroblasts
Format: cell-based, human
Conditions: Homo sapiens, Fibroblast, 72 h, read-out: Proliferating fibroblast apoptosis EC50, cleaved caspase-3 staining, 72 hours, low passage human lung fibroblasts
pEC50: −log10 of the molar value.
pEC50 reference
PARAMETER: pEC50

1) O=c1c(O)c(-c2ccc(OCc3cccnc3)cc2)oc2ccccc12 [Compound F-3N] : 4.83
2) CC1(C)CCC(c2ccc(Cl)cc2)=C(CN2CCN(c3ccc(C(=O)NS(=O)(=O)c4ccc(N[C@H](CCN5CCOCC5)CSc5ccccc5)c(S(=O)(=O)C(F)(F)F)c4)cc3)CC2)C1 [ABT-263, navitoclax, reference compound] : 4.83
3) CC1(C)CCC(CN2CCN(c3ccc(C(=O)NS(=O)(=O)c4ccc(NCC5CCOCC5)c([N+](=O)[O-])c4)c(Oc4cnc5[nH]ccc5c4)c3)CC2)=C(c2ccc(Cl)cc2)C1 [ABT-199, venetoclax, reference compound] : 4.12
4) CN(C)CC[C@H](CSc1ccccc1)Nc1ccc(S(=O)(=O)NC(=O)c2ccc(N3CCN(Cc4ccccc4-c4ccc(Cl)cc4)CC3)cc2)cc1[N+](=O)[O-] [ABT-737, reference compound] : 5.01
5) O=c1c(O)c(-c2ccc(OCc3ccccc3)cc2)oc2ccccc12 [Compound F-20] : 4.56
6) CCOc1ccc(-c2oc3ccccc3c(=O)c2O)cc1 [Compound F-19] : 4.60
7) O=c1c(O)c(-c2ccc(OCc3ccncc3)cc2)oc2ccccc12 [Compound F-4N] : 4.31
8) O=c1c(O)c(-c2ccc(OCc3ccccn3)cc2)oc2ccccc12 [Compound F-2N] : 4.53

----------
half-life at 1 μM reference
Experiment: Plasma stability assay, mouse plasma
Assay type: in vitro ADME
PARAMETER: half-life at 1 μM

1) O=c1c(O)c(-c2ccc(O)c(O)c2)oc2cc(O)cc(O)c12 [quercetin, reference compound] : ~30 min
2) O=c1c(O)c(-c2ccc(OCc3ccncc3)cc2)oc2ccccc12 [Compound F-4N] : > 120 min

----------
Molecular target: senescent lung fibroblasts
Experiment: Cleaved caspase-3 (CCasp3) immunocytochemistry in senescent lung fibroblasts
Type: cell-based, human
Conditions: read-out: Senescent fibroblast apoptosis EC50; cleaved caspase-3 staining, 72 hours, replicative senescent human lung fibroblasts
PARAMETER: EC50 (µM)

1. CCCOc1ccc(-c2oc3ccccc3c(=O)c2O)cc1 : 3.4
